- target: T1, human recombinant CD117 (c-Kit) from Sino Biological (Catalog No. 11996-H08H) (human, UniProt P10721 26-524)
- T1 construct: also called soluble antigen
- T1 sequence (P10721 26-524 limits assumed): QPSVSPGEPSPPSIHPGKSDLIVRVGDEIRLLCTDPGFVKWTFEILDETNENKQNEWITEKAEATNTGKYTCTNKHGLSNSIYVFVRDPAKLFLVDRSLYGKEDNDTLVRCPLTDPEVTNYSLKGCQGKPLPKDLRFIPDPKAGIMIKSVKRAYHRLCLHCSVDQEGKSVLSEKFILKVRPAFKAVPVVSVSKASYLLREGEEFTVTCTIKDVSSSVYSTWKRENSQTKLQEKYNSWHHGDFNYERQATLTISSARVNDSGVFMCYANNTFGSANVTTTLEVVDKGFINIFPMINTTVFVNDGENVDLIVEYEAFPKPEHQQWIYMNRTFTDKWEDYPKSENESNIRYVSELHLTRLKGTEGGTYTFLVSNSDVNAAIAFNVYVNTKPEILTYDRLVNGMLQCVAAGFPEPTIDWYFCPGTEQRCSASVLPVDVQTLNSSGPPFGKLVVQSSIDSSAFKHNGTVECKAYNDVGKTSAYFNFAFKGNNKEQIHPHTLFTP
- assay remarks: BLI Octet, IgG on anti-human Fc sensor, soluble CD117, 1:1 fit
value type: koff

| binder | recorded measurement |
| --- | --- |
| Dom (antibody, V domains shown, IgG; also called VH3/VL1; HC3 LC1) VH: QVQLVQSGAEVRKPGASVKLSCKASGYTFTSYNMHWVRQAPGQGLEWMGVIYSGNGDTSYNQKFKGRVTLTRDTSTSTVYMELSSLRSEDTAVYYCARERDTRFGNWGQGTLVTVSA VL: EIVLTQSPSSLSASVGDRVTITCRASESVDIYGNSFMHWYQQKPGKAPKLLIYLASNLESGVPSRFSGSGSGTDFTLTISSLQPEDFATYYCQQNNEDPYTFGQGTKLEIK | 0.000971 s⁻¹ |
| HC2 LC1 (antibody, V domains shown, IgG; also called VH2/VL1) VH: QVQLVESGAEVKKPGASVKLSCKASGYTFTSYNMHWVRQAPGQRLEWMGVIYSGNGDTSYNQKFKGRVTITVDKSASTAYMELSSLRSEDTAVYYCARERDTRFGNWGQGTLVTVSA VL: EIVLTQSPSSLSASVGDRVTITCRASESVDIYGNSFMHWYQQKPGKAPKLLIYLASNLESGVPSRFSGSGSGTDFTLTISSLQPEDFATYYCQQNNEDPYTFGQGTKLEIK | 0.00206 s⁻¹ |
